These data points were gathered from ChEMBL document CHEMBL5528086.

Biological target: Proto-oncogene tyrosine-protein kinase receptor Ret (Homo sapiens, UniProt P07949, G810R)
Sequence (P07949 29-1114 G810R limits assumed): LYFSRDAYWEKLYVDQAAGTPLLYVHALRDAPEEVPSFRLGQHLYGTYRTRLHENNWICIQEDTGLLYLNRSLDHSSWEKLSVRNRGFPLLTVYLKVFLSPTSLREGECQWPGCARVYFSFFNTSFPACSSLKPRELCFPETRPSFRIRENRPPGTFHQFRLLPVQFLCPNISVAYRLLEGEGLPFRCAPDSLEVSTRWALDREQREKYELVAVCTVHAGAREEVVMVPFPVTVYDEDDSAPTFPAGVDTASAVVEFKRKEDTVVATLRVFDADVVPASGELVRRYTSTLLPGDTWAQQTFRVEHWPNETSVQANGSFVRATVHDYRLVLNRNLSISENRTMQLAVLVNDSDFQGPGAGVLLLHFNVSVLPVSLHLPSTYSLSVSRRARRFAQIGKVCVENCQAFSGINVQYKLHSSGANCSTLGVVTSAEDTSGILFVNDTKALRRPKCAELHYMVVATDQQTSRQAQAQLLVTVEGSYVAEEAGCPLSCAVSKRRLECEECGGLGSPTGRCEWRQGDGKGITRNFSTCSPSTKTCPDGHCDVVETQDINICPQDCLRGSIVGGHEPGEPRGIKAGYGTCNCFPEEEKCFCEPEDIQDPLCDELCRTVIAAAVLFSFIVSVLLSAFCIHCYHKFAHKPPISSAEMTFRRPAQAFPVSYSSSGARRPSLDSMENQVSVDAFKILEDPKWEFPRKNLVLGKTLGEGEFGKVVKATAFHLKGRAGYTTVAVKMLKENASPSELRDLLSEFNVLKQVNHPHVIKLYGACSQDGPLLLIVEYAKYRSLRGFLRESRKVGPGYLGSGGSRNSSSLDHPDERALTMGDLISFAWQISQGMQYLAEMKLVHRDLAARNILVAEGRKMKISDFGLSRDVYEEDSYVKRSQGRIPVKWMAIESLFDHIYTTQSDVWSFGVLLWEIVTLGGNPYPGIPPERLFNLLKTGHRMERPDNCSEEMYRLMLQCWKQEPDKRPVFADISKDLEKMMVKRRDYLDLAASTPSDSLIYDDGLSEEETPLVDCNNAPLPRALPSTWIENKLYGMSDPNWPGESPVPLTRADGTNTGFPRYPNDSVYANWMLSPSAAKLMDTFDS
Experiment: Inhibition of RET G810R mutant (unknown origin)
Attribute Measured: IC50

>>> assay_result("Cc1nc2cnc(N)c(C#Cc3cncc(C(=O)Nc4ccc(CN5CCN(C)CC5)c(C(F)(F)F)c4)c3)c2nc1C")
"18 nM"

* * *

Biological target: Proto-oncogene tyrosine-protein kinase receptor Ret (Homo sapiens, UniProt P07949, V804M)
Sequence (P07949 29-1114 V804M limits assumed): as the sequence (P07949 29-1114 G810R limits assumed) above, with V776M, R782G counted along it
Assay: Inhibition of RET V804M mutant (unknown origin) expressed in Sf9 cells by enzymatic assay
Attribute Measured: IC50 (nM)

>>> assay_result("Cc1nc2cnc(N)c(C#Cc3cncc(C(=O)Nc4ccc(CN5CCN(C)CC5)c(C(F)(F)F)c4)c3)c2nc1C")
15.1
